Cited source for all entries: ChEMBL document CHEMBL1145486

Target: Prostaglandin G/H synthase 2 (Homo sapiens, UniProt P35354)
attribute_measured: Ki

{"structure_notation": "Cc1ccc(Nc2c(F)cccc2Cl)c(CC(=O)O)c1", "endpoint_result": "320 nM"}

====

Items are presented alongside their recorded pIC50.
Biological target: Prostaglandin G/H synthase 2 (Homo sapiens)
Sequence (P35354 whole entry): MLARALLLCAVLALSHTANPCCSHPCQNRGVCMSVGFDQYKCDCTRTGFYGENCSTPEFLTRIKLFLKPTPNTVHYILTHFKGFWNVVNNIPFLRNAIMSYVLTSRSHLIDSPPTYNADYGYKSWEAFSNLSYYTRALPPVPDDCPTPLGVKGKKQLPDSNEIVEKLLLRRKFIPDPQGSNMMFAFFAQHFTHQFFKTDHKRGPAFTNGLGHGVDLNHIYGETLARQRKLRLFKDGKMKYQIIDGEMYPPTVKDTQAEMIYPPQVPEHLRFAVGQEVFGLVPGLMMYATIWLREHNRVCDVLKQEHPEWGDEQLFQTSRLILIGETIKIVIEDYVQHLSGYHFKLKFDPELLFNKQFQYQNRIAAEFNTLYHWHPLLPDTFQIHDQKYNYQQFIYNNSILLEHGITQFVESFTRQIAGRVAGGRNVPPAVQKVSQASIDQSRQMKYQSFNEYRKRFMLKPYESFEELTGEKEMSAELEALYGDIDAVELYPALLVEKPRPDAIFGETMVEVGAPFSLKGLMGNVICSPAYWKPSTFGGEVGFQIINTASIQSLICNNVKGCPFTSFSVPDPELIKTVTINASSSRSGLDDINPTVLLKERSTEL
pIC50: −log10 of the molar value.

{"molecule": "CCc1cccc(C)c1Nc1ccccc1CC(=O)O", "target_system": "Prostaglandin G/H synthase 2 (Homo sapiens)", "pIC50": 6.49}
{"molecule": "Cc1ccc(Nc2c(F)cccc2Cl)c(CC(=O)O)c1 [LUMIRACOXIB]", "target_system": "Prostaglandin G/H synthase 2 (Homo sapiens)", "pIC50": 6.97}
{"molecule": "Cc1ccc(Nc2c(Cl)cc(Cl)cc2Cl)c(CC(=O)O)c1", "target_system": "Prostaglandin G/H synthase 2 (Homo sapiens)", "pIC50": 7.55}
{"molecule": "O=C(O)Cc1ccccc1Nc1c(F)cccc1C(F)(F)F", "target_system": "Prostaglandin G/H synthase 2 (Homo sapiens)", "pIC50": 6.20}
